Recorded growth, one value per entry.
# System: K-562 leukemia
# assay-remarks: NCI-60 one-dose screen, 48 h (100 = growth as untreated, 0 = no growth, -100 = all killed)
# condition-parameters: 10 µM unless noted
This is part of a sample that, as a whole, favours compounds with a hit. Of some 83,000 tested, about 20% had one in any assay.
measurement-label: growth (%)

record-smiles | observed-measurement
C=C(C)[C@@H]1CC[C@]2(C(=O)ON)CC[C@]3(C)[C@H](CC[C@@H]4[C@@]5(C)C/C(=C/c6ccc(Br)cc6)C(=O)C(C)(C)[C@@H]5CC[C@]43C)[C@@H]12 | 46.3
COc1ccc(CCN2C(=O)CSC2=S)cc1OC | 64.8
CCCCCCNC(=O)Oc1ccc(/C(=C(/C)c2ccc(OC)cc2)c2ccc(OCCN3CCCC3)cc2)cc1 | 6.93
O=C1c2c(c3c4cc(Br)ccc4[nH]c3c3ccc4ccccc4c23)C(=O)N1CCN1CCNCC1 | -25.7
